target.desc: UniProt:P07550
Sequence (P07550 whole entry, looked up): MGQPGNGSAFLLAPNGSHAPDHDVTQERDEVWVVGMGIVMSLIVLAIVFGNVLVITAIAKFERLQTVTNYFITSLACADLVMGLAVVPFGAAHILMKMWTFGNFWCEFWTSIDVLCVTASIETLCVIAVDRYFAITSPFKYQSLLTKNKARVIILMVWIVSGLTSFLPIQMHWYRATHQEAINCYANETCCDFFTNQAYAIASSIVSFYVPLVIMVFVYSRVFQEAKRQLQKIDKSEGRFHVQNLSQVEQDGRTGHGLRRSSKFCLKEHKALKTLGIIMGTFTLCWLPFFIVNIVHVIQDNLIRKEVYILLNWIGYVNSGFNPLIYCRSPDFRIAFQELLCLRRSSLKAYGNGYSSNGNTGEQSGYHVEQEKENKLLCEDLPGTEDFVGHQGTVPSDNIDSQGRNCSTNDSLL
experiment: Antagonist activity at recombinant human beta-2 adrenergic receptor assessed as inhibition of agonist-induced cAMP induction at 10 uM by HTRF assay
Format: functional
measurement.kind: inhibition (%)
Provide the reading as a plain figure in %.

Query :: inhibition for `CN(CCNC(=O)c1ccc(C#N)cc1)Cc1ccccc1` ?
Result :: 2

Query :: Same read-out for `CN(CCCNC(=O)c1cccc(Br)c1)Cc1ccccc1` ?
Result :: 0

Query :: Same question, `COc1ccc(C(=O)NCCCN(C)Cc2ccccc2)cc1` this time
Result :: 4

Query :: Try the compound `CN(CCCNC(=O)c1ccc(Cl)cc1)CCc1ccccc1`
Result :: 2

Query :: Same read-out for `COc1cccc(C(=O)NCCCN(C)Cc2ccccc2)c1` ?
Result :: 2

Query :: Continue with `CN(CCNC(=O)c1ccc([N+](=O)[O-])cc1)Cc1ccccc1`
Result :: 3
